The origin of these recorded values is patent US20130310306A1.

Test system: TNF-α production in LPS stimulated THP-1 cells
Assay: Inhibition of TNF-α production in LPS stimulated THP-1 cells (ELISA)
Details: screen 2; mean relative secretion; 10 μM peptide

- Ordered Residues: "GRRRRSGRVKRMRRKQWF [Peptide 268]"
  TNF-α at 10 μM peptide (%): 129.7
- Ordered Residues: "RQWKRRMRKVFHSYRRMG [Peptide 259]"
  TNF-α at 10 μM peptide (%): 108.5
- Ordered Residues: "FWWKRAMRKVRNSRRRRG [Peptide 271]"
  TNF-α at 10 μM peptide (%): 74.4
- Ordered Residues: "KQWKRWMRKVFVSLRRVG [Peptide 260]"
  TNF-α at 10 μM peptide (%): 74.0
- Ordered Residues: "FWWKKAMKKVKGTRRRRG [Peptide 273]"
  TNF-α at 10 μM peptide (%): 78.6
- Ordered Residues: "FRWKRRMRKVRGSRRRQG [Peptide 263]"
  TNF-α at 10 μM peptide (%): 100.1
- Ordered Residues: "GRRRRSFQWKRRMRKVR [Peptide 269]"
  TNF-α at 10 μM peptide (%): 113.8
- Ordered Residues: "RQWKRVMRKVFGSRWWRG [Peptide 261]"
  TNF-α at 10 μM peptide (%): 56.2
- Ordered Residues: "FQWKRRMRKVRGSLRRWG [Peptide 258]"
  TNF-α at 10 μM peptide (%): 115.4
- Ordered Residues: "KQWKRMMRKVFSVRRWFL [Peptide 262]"
  TNF-α at 10 μM peptide (%): 45.3
- Ordered Residues: "CFLWRRNMRKVRGSRRRRG [Peptide 276]"
  TNF-α at 10 μM peptide (%): 135.3
- Ordered Residues: "FWWKRAMRKVRLSRRRRG [Peptide 270]"
  TNF-α at 10 μM peptide (%): 71.5
- Ordered Residues: "FRQWKRWMRKVFHSWRRW [Peptide 265]"
  TNF-α at 10 μM peptide (%): 31.1
- Ordered Residues: "FQWKRRMRKVRGSKKKKG [Peptide 257]"
  TNF-α at 10 μM peptide (%): 109.1

* * *

System: TNF-α production in LPS stimulated THP-1 cells
Experiment: Inhibition of TNF-α production in LPS stimulated THP-1 cells (ELISA)
Conditions: screen 1; mean relative secretion, stimulated level without peptide = 100%, basal = 0%; 40 μM peptide, 6 h
Measure Name: TNF-α at 40 μM peptide (%)

- Ordered Residues: "FWWKRAMRKVRGSRRRRG [Peptide 132]"
  U: "%"
  Assay Value: 18
- Ordered Residues: "CFQWKRAMRKVRGPPVSCIKRDS [Peptide 159]"
  U: "%"
  Assay Value: 60
- Ordered Residues: "FQWQRNMRKVRGPPSRRRRG [Peptide 154]"
  U: "%"
  Assay Value: 162
- Ordered Residues: "FQWQRNMRKVRGSRRRRG [Peptide 152]"
  U: "%"
  Assay Value: 110
- Ordered Residues: "EATKCFQWQRNMRKVRGPPVSSIKR [Peptide 156]"
  U: "%"
  Assay Value: 124
- Ordered Residues: "FQWQRKMRKVRGSRRRRG [Peptide 126]"
  U: "%"
  Assay Value: 107

* * *

Tested on: S. aureus (CCUG 1800)
Test: Minimal microbicidal concentration (MMC99) assay, S. aureus
Type: cell-based
Details: screen 2; 1% BHI medium, 2 hours

- Ordered Residues: "GRRRRSGRVKRMRRKQWF [Peptide 268]"
  MMC99 μM in 1% BHI medium, µM: 6.25
- Ordered Residues: "CFLWRRNMRKVRGSRRRRG [Peptide 276]"
  MMC99 μM in 1% BHI medium, µM: 6.25
- Ordered Residues: "FWWKRAMRKVRNSRRRRG [Peptide 271]"
  MMC99 μM in 1% BHI medium, µM: 6.25
- Ordered Residues: "FQWQRNMRKVRGSRRRRG [Peptide 256]"
  MMC99 μM in 1% BHI medium, µM: 12.5
- Ordered Residues: "RQWKRVMRKVFGSRWWRG [Peptide 261]"
  MMC99 μM in 1% BHI medium, µM: 12.5
- Ordered Residues: "RQWKRRMRKVFHSYRRMG [Peptide 259]"
  MMC99 μM in 1% BHI medium, µM: 6.25
- Ordered Residues: "FRWKRRMRKVRGSRRRQG [Peptide 263]"
  MMC99 μM in 1% BHI medium, µM: 6.25
- Ordered Residues: "FRQWKRWMRKVFHSWRRW [Peptide 265]"
  MMC99 μM in 1% BHI medium, µM: 6.25
- Ordered Residues: "FQWQRNMRKVRGSRRRRG [Peptide 224]"
  MMC99 μM in 1% BHI medium, µM: 12.5
- Ordered Residues: "FQWKRRMRKVRGSLRRWG [Peptide 258]"
  MMC99 μM in 1% BHI medium, µM: 6.25
- Ordered Residues: "GRRRRSFQWKRRMRKVR [Peptide 269]"
  MMC99 μM in 1% BHI medium, µM: 6.25
- Ordered Residues: "FQWKRRMRKVRGSKKKKG [Peptide 257]"
  MMC99 μM in 1% BHI medium, µM: 6.25
- Ordered Residues: "KQWKRMMRKVFSVRRWFL [Peptide 262]"
  MMC99 μM in 1% BHI medium, µM: 6.25
- Ordered Residues: "FWWKRAMRKVRLSRRRRG [Peptide 270]"
  MMC99 μM in 1% BHI medium, µM: 6.25
- Ordered Residues: "KQWKRWMRKVFVSLRRVG [Peptide 260]"
  MMC99 μM in 1% BHI medium, µM: 6.25
- Ordered Residues: "FQWQRNMRKVRGSRRRRG [Peptide 282]"
  MMC99 μM in 1% BHI medium, µM: 12.5
- Ordered Residues: "FWWKKAMKKVKGTRRRRG [Peptide 273]"
  MMC99 μM in 1% BHI medium, µM: 6.25
